- protocolSummary: Kanamycin and tobramycin plasma PK after IV bolus in dogs
- Assay type: in vivo, Beagle dogs
- experimentalContext: female, Beagle, dog, plasma, iv, 0.1 mg, single IV bolus 0.10 mg; 60 min; read-out: Plasma Concentration, Mean
- Protocol: Adult Beagle dogs weighing approximately 10 to 15 kg were used in the study. The animals were housed at Sinclair Research Center, Columbia, Mo. either individually or in pairs in over-sized dog runs. […] A 12-hour light/12-hour dark photoperiod was maintained. Room temperature was set to be maintained at 20±5° C. Relative humidity was monitored but not controlled. Animal room and pen cleaning were performed according to the testing facility (Sinclair) SOPs. […]
parameter: concentration at 60 min

# concentration at 60 min lookup, item `NC[C@H]1O[C@H](O[C@H]2[C@H](O)[C@@H](O[C@H]3O[C@H](CO)[C@@H](O)[C@H](N)[C@H]3O)[C@H](N)C[C@@H]2N)[C@H](O)[C@@H](O)[C@@H]1O`
25.6 ng/mL

---

- protocolSummary: in vivo
- Assay type: in vivo, Beagle dogs
- experimentalContext: female, beagle, dog, in vivo, iv, 0.1 mg, Cmax, Mean
parameter: Cmax (ng/mL)
Return type: number; implicit unit ng/mL.

Form field: reported Cmax of NC[C@H]1O[C@H](O[C@H]2[C@H](O)[C@@H](O[C@H]3O[C@H](CO)[C@@H](O)[C@H](N)[C@H]3O)[C@H](N)C[C@@H]2N)[C@H](N)C[C@@H]1O [Tobramycin]
31

---

- protocolSummary: Tigecycline plasma PK and % F after PO enteric-coated capsule in dogs
- Assay type: in vivo, Beagle dogs
- experimentalContext: female, beagle, dog, plasma, po, 45 mg, Tigecycline Plasma Concentration, Time (min) 3.7; PO 45 mg enteric-coated capsule with 500 mg CA and 100 mg LLC, SC430; mean
- Protocol: Adult beagle dogs weighing approximately 9 to 15 kg were used in the study. […] Room temperature was set to be maintained between approximately 20±5° C. Relative humidity was monitored but not controlled. […] The unknown concentration in dog plasma samples was determined by interpolation of the peak area ratios of analyte:internal standard versus the ratio of their nominal concentrations into the regression line obtained from calibration standards spiked in pooled dog plasma. […]
parameter: concentration at […] (ng/mL)
// return numeric value only (unit: ng/mL, not printed)

Please look up its concentration at […]: `CN(C)c1cc(NC(=O)CNC(C)(C)C)c(O)c2c1C[C@H]1C[C@H]3[C@H](N(C)C)C(O)=C(C(N)=O)C(=O)[C@@]3(O)C(O)=C1C2=O`
62

---

- protocolSummary: Tigecycline plasma PK after IV bolus in dogs
- Type: in vivo, Beagle dogs
- experimentalContext: female, beagle, dog, plasma, iv, 0.08 mg/kg, 1 mg IV in PBS (0.08 mg/kg), SC427; individual dogs; read-out: Cmax
parameter: Cmax
Hey, just the number and the unit after it is fine.

Fill in the blank: the reported Cmax of `CN(C)c1cc(NC(=O)CNC(C)(C)C)c(O)c2c1C[C@H]1C[C@H]3[C@H](N(C)C)C(O)=C(C(N)=O)C(=O)[C@@]3(O)C(O)=C1C2=O` is ____.
86 ng/mL

---

- protocolSummary: Tigecycline plasma PK and % F after PO enteric-coated capsule in dogs
- Assay type: in vivo, Beagle dogs
- experimentalContext: female, beagle, dog, plasma, po, 30 mg, PO 30 mg enteric-coated capsule with 500 mg CA and 100 mg LLC ([…]), SC430; mean excluding animal 5256; read-out: Tmax (converted)
parameter: Tmax (h)
Return type: number; implicit unit h.

GET /values?readout=Tmax&item= `CN(C)c1cc(NC(=O)CNC(C)(C)C)c(O)c2c1C[C@H]1C[C@H]3[C@H](N(C)C)C(O)=C(C(N)=O)C(=O)[C@@]3(O)C(O)=C1C2=O`
1.6
